Tested system: human EGFR (L858R/T790M/C797S) (Homo sapiens, UniProt P00533, C797S/L858R/T790M)
Construct: made in house; host or cells: Sf9 insect cells, baculovirus
Sequence (P00533 with tags, fused parts or gaps T790M/C797S/L858R): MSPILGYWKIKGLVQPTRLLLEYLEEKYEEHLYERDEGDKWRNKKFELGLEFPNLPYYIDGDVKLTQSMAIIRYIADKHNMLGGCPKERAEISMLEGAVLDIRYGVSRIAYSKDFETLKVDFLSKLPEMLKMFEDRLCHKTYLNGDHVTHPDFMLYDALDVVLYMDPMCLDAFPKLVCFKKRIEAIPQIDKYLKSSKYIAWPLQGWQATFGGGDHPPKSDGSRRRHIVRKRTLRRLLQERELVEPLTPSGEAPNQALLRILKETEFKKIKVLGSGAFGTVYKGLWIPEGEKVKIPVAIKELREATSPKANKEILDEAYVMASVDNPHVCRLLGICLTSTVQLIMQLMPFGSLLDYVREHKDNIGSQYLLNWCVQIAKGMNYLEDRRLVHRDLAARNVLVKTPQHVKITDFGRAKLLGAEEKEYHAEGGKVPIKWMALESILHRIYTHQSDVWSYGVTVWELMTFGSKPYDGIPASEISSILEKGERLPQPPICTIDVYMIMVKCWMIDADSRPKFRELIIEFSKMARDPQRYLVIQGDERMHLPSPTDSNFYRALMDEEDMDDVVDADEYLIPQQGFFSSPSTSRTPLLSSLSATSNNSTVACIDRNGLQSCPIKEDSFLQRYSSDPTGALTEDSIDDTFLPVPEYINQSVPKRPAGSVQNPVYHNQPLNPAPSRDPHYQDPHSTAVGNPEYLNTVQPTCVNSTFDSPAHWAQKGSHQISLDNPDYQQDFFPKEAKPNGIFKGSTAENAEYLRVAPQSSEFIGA
Assay overview: Inhibitory activity against EGFR (L858R/T790M/C797S) kinase
Type: biochemical
Protocol conditions: Test Example 3, Table 9; same procedures as 2) in Test Example 1
The entries below come with measured IC50 values attached.
Measured endpoint: IC50 (nM)

- C#Cc1c(-c2cnc3ccccc3c2)c2c(N)ncnc2n1C12CCC(NC(=O)OCc3cnccn3)(CC1)C2 [Example 59]: 0.47
- C#Cc1c(-c2cnc3ccccc3c2)c2c(N)ncnc2n1C12CCC(NC(=O)N3CCOCC3)(CC1)C2 [Example 61]: 1.6

###

Tested system: human EGFR (WT) (Homo sapiens, UniProt P00533)
Construct: purchased Carna Biosciences Inc., Japan
Sequence (P00533 25-1210): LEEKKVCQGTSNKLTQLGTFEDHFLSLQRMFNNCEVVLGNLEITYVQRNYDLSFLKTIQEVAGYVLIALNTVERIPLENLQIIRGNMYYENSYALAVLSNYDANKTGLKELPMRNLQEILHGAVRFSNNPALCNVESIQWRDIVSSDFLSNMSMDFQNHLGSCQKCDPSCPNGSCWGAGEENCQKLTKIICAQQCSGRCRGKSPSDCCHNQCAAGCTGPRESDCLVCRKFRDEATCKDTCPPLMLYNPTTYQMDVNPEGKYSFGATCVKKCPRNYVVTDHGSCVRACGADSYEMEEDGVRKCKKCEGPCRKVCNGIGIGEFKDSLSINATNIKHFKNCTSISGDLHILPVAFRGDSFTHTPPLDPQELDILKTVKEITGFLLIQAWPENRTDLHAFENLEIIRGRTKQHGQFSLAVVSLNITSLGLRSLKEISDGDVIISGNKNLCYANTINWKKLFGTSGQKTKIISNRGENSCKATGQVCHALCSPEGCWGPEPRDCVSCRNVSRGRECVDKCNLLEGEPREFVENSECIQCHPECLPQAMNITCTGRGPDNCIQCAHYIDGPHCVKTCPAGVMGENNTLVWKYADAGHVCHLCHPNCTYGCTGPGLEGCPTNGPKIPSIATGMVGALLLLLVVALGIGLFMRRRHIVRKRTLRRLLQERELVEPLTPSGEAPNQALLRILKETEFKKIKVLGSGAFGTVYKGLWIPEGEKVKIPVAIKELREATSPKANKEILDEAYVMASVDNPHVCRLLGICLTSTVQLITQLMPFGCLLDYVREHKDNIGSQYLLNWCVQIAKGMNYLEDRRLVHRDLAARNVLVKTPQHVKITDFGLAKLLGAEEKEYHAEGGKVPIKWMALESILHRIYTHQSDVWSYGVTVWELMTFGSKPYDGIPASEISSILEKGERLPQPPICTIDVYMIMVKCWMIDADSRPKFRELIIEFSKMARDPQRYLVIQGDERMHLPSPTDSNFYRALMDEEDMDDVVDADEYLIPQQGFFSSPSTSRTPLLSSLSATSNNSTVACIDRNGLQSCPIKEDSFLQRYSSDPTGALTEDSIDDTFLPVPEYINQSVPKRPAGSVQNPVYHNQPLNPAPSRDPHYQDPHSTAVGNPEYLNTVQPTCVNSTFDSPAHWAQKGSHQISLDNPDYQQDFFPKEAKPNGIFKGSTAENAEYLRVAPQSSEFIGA
Assay overview: Inhibitory activity against EGFR (WT) kinase
Assay type: biochemical
Protocol conditions: Test Example 3, Table 12; same procedures as 5) in Test Example 1
Measured endpoint: IC50 (pM)

* C#Cc1c(-c2cnc3ccccc3c2)c2c(N)ncnc2n1C12CCC(NC(=O)c3cnc(CN4CCOCC4)cn3)(CC1)C2 | 740
* C#Cc1c(-c2cnc3ccccc3c2)c2c(N)ncnc2n1C12CCC(NC(=O)c3cnc4ccccn34)(CC1)C2 | 410

###

Tested system: human EGFR (L858R/T790M/C797S) (Homo sapiens, UniProt P00533, C797S/L858R/T790M)
Construct: made in house; host or cells: Sf9 insect cells, baculovirus
Assay overview: Inhibitory activity against EGFR (L858R/T790M/C797S) kinase
Format: biochemical
Protocol conditions: Test Example 1, Table 3; ATP 0.5 μM
pIC50: −log10 of the molar value.
The reader will find reported pIC50 values listed item by item below.
Measured endpoint: pIC50

• C#Cc1c(-c2cnc3ccccc3c2)c2c(N)ncnc2n1C12CCC(N(C)C(=O)c3ncco3)(CC1)C2 = 8.82
• C#Cc1c(-c2cnc3ccccc3c2)c2c(N)ncnc2n1C12CCC(NC(=O)c3ccc4ncnn4c3)(CC1)C2 = 9.44
• C#Cc1c(-c2cnc3ccccc3c2)c2c(N)ncnc2n1C12CCC(NC(=O)c3cc(CF)nn3C)(CC1)C2 = 9.51

###

Tested system: human EGFR (WT) (Homo sapiens)
Construct: purchased Carna Biosciences Inc., Japan
Assay overview: Inhibitory activity against EGFR (WT) kinase
Assay type: biochemical
Protocol conditions: Test Example 1, Table 6; ATP 1.5 μM
Measured endpoint: IC50

• C#Cc1c(-c2cnc3ccccc3c2)c2c(N)ncnc2n1C12CCC(NC(=O)c3ccc4ncnn4c3)(CC1)C2 = 0.53 nM
• C#Cc1c(-c2cnc3ccccc3c2)c2c(N)ncnc2n1C12CCC(CNCCF)(CC1)C2 = 6.3 nM
• C#Cc1c(-c2cnc3ccccc3c2)c2c(N)ncnc2n1C12CCC(NC(=O)CN(C)C)(CC1)CC2 = 1.2 nM
• C#Cc1c(-c2cnc3ccccc3c2)c2c(N)ncnc2n1C12CCC(O)(CC1)CC2 = 2.5 nM
• C#Cc1c(-c2cnc3ccccc3c2)c2c(N)ncnc2n1C12CCC(NC(=O)c3ncco3)(CC1)C2 = 0.79 nM
• C#Cc1c(-c2cnc3ccccc3c2)c2c(N)ncnc2n1C12CCC(NC(=O)c3cnccn3)(CC1)C2 = 0.75 nM
• C#Cc1c(-c2cnc3ccccc3c2)c2c(N)ncnc2n1C12CCC(NC(=O)c3cnccc3OC)(CC1)C2 = 1.5 nM
• C#Cc1c(-c2cnc3ccccc3c2)c2c(N)ncnc2n1C12CCC(NC(=O)c3cnc(C)cn3)(CC1)C2 = 0.92 nM
• C#Cc1c(-c2cnc3ccccc3c2)c2c(N)ncnc2n1C12CCC(NC(=O)c3noc(C)n3)(CC1)C2 = 2.6 nM
• C#Cc1c(-c2cnc3ccccc3c2)c2c(N)ncnc2n1C12CCC(NC(=O)c3cc(CF)nn3C)(CC1)C2 = 0.62 nM
• C#Cc1c(-c2cnc3ccccc3c2)c2c(N)ncnc2n1C12CCC(NC(=O)c3cnc(N(C)C)cn3)(CC1)C2 = 1 nM
• CC#Cc1c(-c2cnc3ccccc3c2)c2c(N)ncnc2n1C12CCC(NC(=O)c3ccnn3C)(CC1)C2 = 1.9 nM
• C#Cc1c(-c2cnc3ccccc3c2)c2c(N)ncnc2n1C12CCC(NC(=O)c3ccnn3CCOC)(CC1)C2 = 2.6 nM
• C#Cc1c(-c2cnc3ccccc3c2)c2c(N)ncnc2n1C12CCC(NC(=O)COC)(CC1)C2 = 3.2 nM
• C#Cc1c(-c2cnc3ccccc3c2)c2c(N)ncnc2n1C12CCC(NC(=O)c3ccnnc3)(CC1)C2 = 0.45 nM

This collection of values is drawn from patent US11786534B2.
